Measured solubility kinetic by item
# Condition parameters: buffer; pH 7.4; 200.0 µM

O=C(O)c1ccc(Nc2nc(-c3cccnc3)cs2)cc1O : > 47 µg/mL
CC(=O)NC(=S)Nc1ccccc1F : > 31.8 µg/mL
COc1ccc(Nc2nc(C)nc3c2oc2ccccc23)c(OC)c1 : < 0.2 µg/mL
CCOC(=O)CSc1nnc(CNC(=O)c2cccc(C)c2)n1C : > 52.3 µg/mL
O=C(CCl)Nc1c2c(nn1-c1ccccc1)CSC2 : > 44.1 µg/mL
O=C(Cc1ccccc1[N+](=O)[O-])NCc1ccco1 : > 39 µg/mL
Cc1ccc(CNC(=O)C(c2ccccc2)c2ccccc2)cc1 : < 0.7 µg/mL
CCOC(=O)C1(Cc2ccccc2)CCCN(C2CCCC2)C1 (configuration not stated) : > 47.3 µg/mL

-- ask Bench note: what solubility kinetic did COc1ccc(Cc2nc(C)cc(Cl)n2)cc1[N+](=O)[O-].Cl show?
-- reply > 49.5 µg/mL

====

# Condition parameters: buffer; pH 7.4; 200.0 µM
Reported endpoint: solubility kinetic

Previously resolved entries follow.
Cc1cccc(C(=O)NCC(=O)N2CCOCC2)c1 : > 39.3 µg/mL
CC(C)NC(=S)NCc1cccs1 : > 32.2 µg/mL
Cc1ccc(C(=O)Nc2ncccc2O)o1 : > 32.7 µg/mL
CC1SCC(NC(=O)c2ccccc2Cl)CS1 (configuration not stated) : > 43.2 µg/mL
CCOC(=O)/C(C#N)=C\c1cccnc1 : > 30.3 µg/mL
O=C(COC(=O)CNC(=O)C1CCCCC1)Nc1ccccc1 : > 47.8 µg/mL
CC(=O)c1ccc(NC(=S)NC(=O)/C=C/c2ccccc2)cc1 : < 0.3 µg/mL
CCc1ccc(NC2=NCCCS2)cc1 : > 33 µg/mL

-- ask Bench note: what solubility kinetic did Cn1nc(C(=O)NC2CCCC2)c2ccccc2c1=O show?
-- reply > 40.7 µg/mL

-- ask Bench note: what solubility kinetic did Cc1cccc(Nc2nc(N)nc(-c3oc4ccccc4c3C)n2)c1 show?
-- reply < 0.1 µg/mL

====

Measured solubility kinetic by item
# Condition parameters: buffer; pH 7.4; 200.0 µM

Previously resolved entries follow.
Cc1cc(C)c(S(=O)(=O)c2ccccc2)c(=O)[nH]1 : > 39.5 µg/mL
Cc1oc(-c2ccccc2)cc1C(=O)NC1CCN(Cc2ccccc2)CC1 : < 0.4 µg/mL

Okay, next one:
-- ask Bench note: what solubility kinetic did Cc1ccc(C)c(S(=O)(=O)N2CCCN(C)CC2)c1 show?
-- reply > 42.4 µg/mL

====

Measured solubility kinetic by item
# Condition parameters: buffer; pH 7.4; 200.0 µM

CCNC(=O)NNC(=O)C1CC(c2cccnc2)=NO1 (stereo not given) : > 41.6 µg/mL

-- ask Bench note: what solubility kinetic did Cc1cc(C(=O)OCC(=O)NCc2ccccc2)c(C)o1 show?
-- reply > 43.1 µg/mL

-- ask Bench note: what solubility kinetic did COC(=O)C1=C(C)OC(N)=C(C#N)C12C(=O)Nc1ccccc12 (stereo not given) show?
-- reply > 46.7 µg/mL

-- ask Bench note: what solubility kinetic did Cc1cc(=O)oc2cc(OCC(O)Cn3ccnc3)ccc12 (stereo not given) show?
-- reply > 45 µg/mL

-- ask Bench note: what solubility kinetic did O=C(CC1SCCNC1=O)Nc1cccc([N+](=O)[O-])c1 (stereo not given) show?
-- reply > 44.3 µg/mL

====

# Condition parameters: buffer; pH 7.4; 200.0 µM
The threshold is inclusive: solubility kinetic of exactly 10 µg/mL counts as yes (1); values below receive no (0).

Illustrative cases are given below, each with its answer.
CC(=O)Nc1ccc(OCC(=O)NCc2ccc(C)cc2)cc1 : yes (1)
COc1ccc(NC(=S)N2CCN(C)CC2)cc1 : yes (1)
CN(c1ccccc1)S(=O)(=O)c1cccc(C(=O)NCC(=O)Nc2ccc(F)c(F)c2F)c1 : no (0)

-- ask Record COc1ccc(-c2csc(NC3CCCCC3)n2)c(OC)c1 ; criterion: solubility kinetic no lower than 10 µg/mL. Met?
-- reply yes (1)

-- ask Record Fc1cc(F)c(NC(=S)N2CCOCC2)c(F)c1 ; criterion: solubility kinetic no lower than 10 µg/mL. Met?
-- reply yes (1)

-- ask Record O=C(O)c1c(NC(=O)N2CCCC2)sc2c1CCCC2 ; criterion: solubility kinetic no lower than 10 µg/mL. Met?
-- reply yes (1)

-- ask Record O=C1CSC(c2cccc(O)c2)N1Cc1ccccc1 (stereo not drawn) ; criterion: solubility kinetic no lower than 10 µg/mL. Met?
-- reply yes (1)

-- ask Record CC1=CC(C)(C)N(C(=O)Nc2ccccc2)c2ccccc21 ; criterion: solubility kinetic no lower than 10 µg/mL. Met?
-- reply no (0)

-- ask Record CCOC(=O)c1ccc(CN2C(=O)c3ccccc3S2(=O)=O)cc1 ; criterion: solubility kinetic no lower than 10 µg/mL. Met?
-- reply no (0)

-- ask Record NS(=O)(=O)c1cccc(NC(=O)CSc2nc3ccccc3c(=O)n2Cc2ccco2)c1 ; criterion: solubility kinetic no lower than 10 µg/mL. Met?
-- reply no (0)

-- ask Record CC(C)c1nc(C#N)c(NN)o1 ; criterion: solubility kinetic no lower than 10 µg/mL. Met?
-- reply yes (1)

-- ask Record NS(=O)(=O)c1ccc(NC2=CC(=O)C(=O)c3ccccc32)cc1 ; criterion: solubility kinetic no lower than 10 µg/mL. Met?
-- reply yes (1)

-- ask Record CN(CCC#N)C(=O)c1cc2c(s1)-c1ccccc1SC2 ; criterion: solubility kinetic no lower than 10 µg/mL. Met?
-- reply yes (1)

-- ask Record CC(C)c1ccc(Nc2nc(Cl)nc(NCc3ccco3)n2)cc1 ; criterion: solubility kinetic no lower than 10 µg/mL. Met?
-- reply no (0)

-- ask Record CC1(C)CC(NCc2ccncc2)CC(C)(C)N1 ; criterion: solubility kinetic no lower than 10 µg/mL. Met?
-- reply yes (1)

====

# Condition parameters: buffer; pH 7.4; 200.0 µM
Measured solubility kinetic by item

Previously resolved entries follow.
FC(F)(F)c1ccc(Cl)c(NC2=NCCCCC2)c1 : > 43.6 µg/mL
O=C(Cc1ccc(Cl)cc1Cl)NCc1cccnc1 : > 44.3 µg/mL
Cn1c(=O)c2c(nc3n2CC(COc2ccccc2)O3)n(C)c1=O (configuration not stated) : > 49.2 µg/mL

-- ask Bench note: what solubility kinetic did COc1ccc(S(=O)(=O)NC(C)C(=O)NC2CC2)cc1C (configuration not stated) show?
-- reply > 46.9 µg/mL

-- ask Bench note: what solubility kinetic did CCOC(=O)c1c(O)c2cccc3c2n(c1=O)CC3 show?
-- reply > 38.9 µg/mL

-- ask Bench note: what solubility kinetic did CN(c1ccccc1)c1nc(N)c([N+](=O)[O-])c(NCc2ccccc2)n1 show?
-- reply < 0.1 µg/mL

-- ask Bench note: what solubility kinetic did Cc1noc(C)c1S(=O)(=O)Nc1ccc(C(C)C)cc1 show?
-- reply > 44.2 µg/mL

-- ask Bench note: what solubility kinetic did COc1ccccc1NC(=O)c1ccc(NC(=O)CN2CCCCC2)cc1.O=C(O)C(=O)O show?
-- reply > 68.6 µg/mL

====

# Condition parameters: buffer; pH 7.4; 200.0 µM
Measured log10 of solubility kinetic by item
Recorded solubility kinetic (log10, µg/mL)

Previously resolved entries follow.
CCN(C(=O)/C=C/c1ccc(OC)cc1)C1CCCCC1 : 1.58
Cc1ccc(NC(=O)CSc2nc(C)c(C)c(C)n2)cc1S(=O)(=O)N1CCOCC1 : 0.62
COc1cc(/C=C/C(=O)Nc2ccc(OC)c(S(=O)(=O)N3CCOCC3)c2)ccc1OC(F)F : 0.41
CC1(C)C(C#N)=C(N)Oc2c1c(=O)oc1ccccc21 : 0.04
O=C(NCc1ccccc1F)c1ccncc1 : 1.47

-- ask Bench note: what log10 of solubility kinetic did O=C(Nc1ccc(F)c(Cl)c1)C1CC2CCC1C2 (configuration not stated) show?
-- reply 0.45

====

Measured solubility kinetic by item
# Condition parameters: buffer; pH 7.4; 200.0 µM

Previously resolved entries follow.
CCOc1cc2c3c(c1)C(C)=CC(C)(C)N3C(=O)C2=O : < 0.6 µg/mL
O=C(O)Cn1c(=O)c(-c2ccccc2)nc2ccccc21 : > 42 µg/mL
O=[N+]([O-])c1ccc2ccn(C3OCC(O)C(O)C3O)c2c1 (stereo unspecified) : > 44.1 µg/mL
Cc1cc(C)c(NC(=O)COC(=O)C2CCC(=O)N2)c(C)c1 (stereo unspecified) : > 45.7 µg/mL
O=S(=O)(c1ccccc1)c1cnc(-c2ccccc2)nc1N1CCCC1 : < 0.3 µg/mL

Okay, next one:
-- ask Bench note: what solubility kinetic did CCCC(=O)OCC(=O)Nc1ccc2[nH]c(=O)[nH]c2c1 show?
-- reply > 41.6 µg/mL

====

# Condition parameters: buffer; pH 7.4; 200.0 µM
Reported endpoint: solubility kinetic (µg/mL)
Hi! Could you send only the number? It should be in µg/mL, unit omitted.

Previously resolved entries follow.
COc1cc(C(=O)OCC(=O)NCCCc2ccccc2)ccc1OCC(C)C : 1.2
COc1ccc2c(c1OC)C(=O)N(c1cccc(NC(C)=O)c1)C2 : 46.6
COc1cccc(NC(=S)N(CCN(C)C)Cc2cccs2)c1 : 41.6

-- ask Bench note: what solubility kinetic did CN(C)c1cc(-c2ccc(Cl)cc2)oc(=O)c1Cl show?
-- reply 1.7

-- ask Bench note: what solubility kinetic did Cc1ccc(C)c(C(C)NC(=S)NCc2ccc(F)cc2)c1 (configuration not stated) show?
-- reply 1.4

-- ask Bench note: what solubility kinetic did CN1CC(c2ccccc2)Oc2ccccc2C1=S (configuration not stated) show?
-- reply 5.6
